study_target: Thymidine kinase (Varicella-zoster virus (strain Dumas) (HHV-3) (Human herpesvirus 3), UniProt P09250)
Sequence (P09250 whole entry): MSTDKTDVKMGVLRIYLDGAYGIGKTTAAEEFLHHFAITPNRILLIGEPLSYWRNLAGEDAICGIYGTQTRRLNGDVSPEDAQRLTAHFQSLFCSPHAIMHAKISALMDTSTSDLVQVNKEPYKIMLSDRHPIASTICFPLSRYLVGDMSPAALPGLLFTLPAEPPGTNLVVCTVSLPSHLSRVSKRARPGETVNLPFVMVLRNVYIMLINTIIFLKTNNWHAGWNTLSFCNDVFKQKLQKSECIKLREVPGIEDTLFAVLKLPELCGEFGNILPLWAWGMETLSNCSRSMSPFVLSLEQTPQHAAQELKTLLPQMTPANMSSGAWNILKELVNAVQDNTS
assay_comment: Inhibition of VZV thymidine kinase
Measured pIC50 values are reported for all entries that follow.
Scale: negative log10 of molar concentration, which is what pIC50 denotes.

Example entries begin here.
>>> result("CCCCCCc1cnc(-c2cc3cn([C@H]4C[C@H](O)[C@@H](CO)O4)c(=O)nc3o2)nc1")
4.82
>>> result("CCCCCCCC/C=C/c1cc2cn([C@H]3C[C@H](O)[C@@H](CO)O3)c(=O)nc2o1")
4.19
>>> result("CCCCCc1ccc(-c2cc3cn([C@H]4C[C@H](O)[C@@H](CO)O4)c(=O)nc3o2)cn1")
4.74

The record that follows has no pIC50 shown yet.
Task: I am curious: what pIC50 value has been reported for CCCCCCc1ccc(-c2cc3cn([C@H]4C[C@H](O)[C@@H](CO)O4)c(=O)nc3o2)nc1 ?
Output: 5.43
